# System Tested: human FLT3-ITD enzyme (Homo sapiens)
# Assay Explanation: FLT3 enzyme inhibitory ability (ADP-Glo kinase assay)
# Assay Conditions: human FLT3-ITD enzyme 10 ng, ATP 10 μM, 25° C. 1 hour
Parameter Measured: IC50

Would you please look over these solved cases?
[
  {
    "Compound": "COc1cc(Nc2nc(N3OCC[C@H]3c3ccccc3)c3cc[nH]c3n2)ccc1N1CCC(N2CCN(CCO)CC2)CC1",
    "Result": "250 to 500 nM"
  },
  {
    "Compound": "COc1cc(Nc2nc(N3N=CCC3c3ccccc3)c3sccc3n2)cc(C(=O)N2CCN(CCO)CC2)c1 (centres unmarked)",
    "Result": "> 500 nM"
  },
  {
    "Compound": "CN1CCN(c2ccc(Nc3nc(N4OCC[C@H]4c4ccccc4)c4sccc4n3)cc2)CC1",
    "Result": "≥ 250 nM"
  },
  {
    "Compound": "CN1CCN(c2ccc(Nc3nc(N4OCC[C@H]4c4cccc(F)c4)c4cc[nH]c4n3)cc2)CC1",
    "Result": "≥ 250 nM"
  },
  {
    "Compound": "COc1cc(Nc2nc(N3N=CCC3c3ccccc3)c3sccc3n2)ccc1N1CCN(C)CC1 (centres unmarked)",
    "Result": "250 to 500 nM"
  },
  {
    "Compound": "Cc1cc(Nc2nc(N3N=CCC3c3ccccc3)c3sccc3n2)cc(C)c1OCCCN1CCCC1 (centres unmarked)",
    "Result": "> 500 nM"
  }
]

Form field: reported IC50 of CN(C)[C@@H]1CCN(c2cccc(Nc3nc(N4OCC[C@H]4c4ccccc4)c4sccc4n3)c2)C1 > 500 nM

Form field: reported IC50 of CN(C)[C@@H]1CCN(c2cccc(Nc3nc(N4OCC[C@@H]4c4ccccc4)c4sccc4n3)c2)C1 > 500 nM

###

In this section, each of the compounds is paired with its reported pIC50.
# System Tested: human FLT3-ITD enzyme (Homo sapiens, UniProt P36888)
# Sequence (P36888 1-993): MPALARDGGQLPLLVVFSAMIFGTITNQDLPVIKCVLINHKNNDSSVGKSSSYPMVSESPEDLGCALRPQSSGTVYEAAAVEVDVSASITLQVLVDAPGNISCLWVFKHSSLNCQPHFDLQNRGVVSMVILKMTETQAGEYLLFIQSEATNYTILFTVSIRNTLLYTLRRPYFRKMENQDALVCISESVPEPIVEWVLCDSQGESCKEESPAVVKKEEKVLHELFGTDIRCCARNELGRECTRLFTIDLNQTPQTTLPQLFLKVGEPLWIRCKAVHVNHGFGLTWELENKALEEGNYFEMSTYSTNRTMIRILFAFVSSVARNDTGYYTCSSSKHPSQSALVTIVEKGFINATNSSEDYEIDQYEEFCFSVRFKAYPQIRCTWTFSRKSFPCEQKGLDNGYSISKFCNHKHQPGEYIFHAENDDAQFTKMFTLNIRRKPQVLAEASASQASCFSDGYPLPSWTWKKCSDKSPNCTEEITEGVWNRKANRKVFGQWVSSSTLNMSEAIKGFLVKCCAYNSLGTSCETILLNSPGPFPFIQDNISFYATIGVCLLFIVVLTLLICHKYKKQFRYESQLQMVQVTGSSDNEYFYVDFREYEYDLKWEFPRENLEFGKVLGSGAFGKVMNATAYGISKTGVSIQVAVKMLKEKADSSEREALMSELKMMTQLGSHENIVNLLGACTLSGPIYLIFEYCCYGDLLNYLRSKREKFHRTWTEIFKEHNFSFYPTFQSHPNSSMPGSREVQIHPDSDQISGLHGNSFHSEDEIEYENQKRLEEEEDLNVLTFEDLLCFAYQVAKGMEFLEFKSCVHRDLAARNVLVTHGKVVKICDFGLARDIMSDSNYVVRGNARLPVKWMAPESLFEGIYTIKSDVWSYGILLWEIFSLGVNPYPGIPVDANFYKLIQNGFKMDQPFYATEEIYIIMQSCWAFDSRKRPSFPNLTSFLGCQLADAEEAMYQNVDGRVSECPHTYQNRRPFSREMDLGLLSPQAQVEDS
# Assay Explanation: FLT3 enzyme inhibitory ability (ADP-Glo kinase assay)
# Assay type: biochemical
# Assay Conditions: human FLT3-ITD enzyme 10 ng, ATP 10 μM, 25° C. 1 hour
pIC50: −log10 of the molar value.

Would you please look over these solved cases?
[
  {
    "Compound": "CN1CCN(c2ccc(Nc3nc(N4N=CCC4c4ccc5ccccc5c4)c4sccc4n3)cc2)CC1 (centres unmarked) [Example 31]",
    "pIC50": "< 6.30"
  },
  {
    "Compound": "CN(C)CCCn1cc(Nc2nc(N3N=CCC3c3ccccc3)c3sccc3n2)cn1 (centres unmarked) [Example 26]",
    "pIC50": "< 6.30"
  },
  {
    "Compound": "CCN1CCN(c2ccc(Nc3nc(N4OCC[C@H]4c4ccccc4)c4cc[nH]c4n3)cc2)CC1 [Example 79]",
    "pIC50": "6.30 to 6.60"
  },
  {
    "Compound": "CN1CCN(c2ccc(Nc3nc(N4N=CCC4c4cc5ccccc5cn4)c4sccc4n3)cc2)CC1 (centres unmarked) [Example 32]",
    "pIC50": "< 6.30"
  },
  {
    "Compound": "CN(C)[C@H]1CCN(c2cccc(Nc3nc(N4OCC[C@@H]4c4ccccc4)c4sccc4n3)c2)C1 [Example 64]",
    "pIC50": "< 6.30"
  }
]

Return pIC50 measured with human FLT3-ITD enzyme (Homo sapiens, UniProt P36888) given this compound: CN1CCN(c2ccc(Nc3nc(N4N=CCC4c4ccccc4)c4sccc4n3)cc2C(F)(F)F)CC1 (centres unmarked) [Example 53] < 6.30

Return pIC50 measured with human FLT3-ITD enzyme (Homo sapiens, UniProt P36888) given this compound: C1=NN(c2nc(Nc3cnn(C4CCNCC4)c3)nc3ccsc23)C(c2ccccc2)C1 (centres unmarked) [Example 28] ≤ 6.60

Return pIC50 measured with human FLT3-ITD enzyme (Homo sapiens, UniProt P36888) given this compound: CN1CCC(NC(=O)c2ccc(Nc3nc(N4N=CCC4c4ccccc4)c4sccc4n3)cc2)CC1 (centres unmarked) [Example 19] ≤ 6.60

###

In this section, each of the compounds is paired with its reported pIC50.
# System Tested: human FLT3-ITD enzyme (Homo sapiens, UniProt P36888)
# Assay Explanation: FLT3 enzyme inhibitory ability (ADP-Glo kinase assay)
# Assay Conditions: human FLT3-ITD enzyme 10 ng, ATP 10 μM, 25° C. 1 hour
pIC50: −log10 of the molar value.

[
  {
    "Compound": "C[C@@H]1CN(Cc2cc(Nc3nc(N4N=CCC4c4ccccc4)c4sccc4n3)cc(C3CC3)c2)C[C@H](C)N1 (stereo partly shown)",
    "Parameter Measured": "pIC50",
    "Result": "< 6.30"
  },
  {
    "Compound": "CN1CCN(c2ccc(Nc3nc(N4N=CCC4c4cccc(F)c4)c4sccc4n3)cc2)CC1 (stereo not shown)",
    "Parameter Measured": "pIC50",
    "Result": "< 6.30"
  },
  {
    "Compound": "CN(C)[C@H]1CCN(c2ccc(Nc3nc(N4N=CCC4c4ccccc4)c4sccc4n3)cc2)C1 (stereo partly shown)",
    "Parameter Measured": "pIC50",
    "Result": "< 6.30"
  }
]

Form field: reported pIC50 of CN1CCN(c2ccc(Nc3nc(N4N=CCC4c4ccccc4)c4sccc4n3)cc2)CC1 (stereo not shown) 6.30 to 6.60

Form field: reported pIC50 of CN1CCN(C2CCN(c3ccc(Nc4nc(N5OCC[C@H]5c5ccccc5)c5c(C#N)c[nH]c5n4)cc3)CC2)CC1 ≤ 6.60

Form field: reported pIC50 of CN1CCN(C2CCN(c3ccc(Nc4nc(N5OCC[C@H]5c5ccccc5)c5cc[nH]c5n4)cc3)CC2)CC1 ≤ 6.60

Form field: reported pIC50 of COc1cc(Nc2nc(N3OCC[C@@H]3c3ccccc3)c3sccc3n2)cc(C(=O)N2CCN(CCO)CC2)c1 < 6.30

###

# System Tested: human FLT3-ITD enzyme (Homo sapiens)
# Sequence (P36888 1-993): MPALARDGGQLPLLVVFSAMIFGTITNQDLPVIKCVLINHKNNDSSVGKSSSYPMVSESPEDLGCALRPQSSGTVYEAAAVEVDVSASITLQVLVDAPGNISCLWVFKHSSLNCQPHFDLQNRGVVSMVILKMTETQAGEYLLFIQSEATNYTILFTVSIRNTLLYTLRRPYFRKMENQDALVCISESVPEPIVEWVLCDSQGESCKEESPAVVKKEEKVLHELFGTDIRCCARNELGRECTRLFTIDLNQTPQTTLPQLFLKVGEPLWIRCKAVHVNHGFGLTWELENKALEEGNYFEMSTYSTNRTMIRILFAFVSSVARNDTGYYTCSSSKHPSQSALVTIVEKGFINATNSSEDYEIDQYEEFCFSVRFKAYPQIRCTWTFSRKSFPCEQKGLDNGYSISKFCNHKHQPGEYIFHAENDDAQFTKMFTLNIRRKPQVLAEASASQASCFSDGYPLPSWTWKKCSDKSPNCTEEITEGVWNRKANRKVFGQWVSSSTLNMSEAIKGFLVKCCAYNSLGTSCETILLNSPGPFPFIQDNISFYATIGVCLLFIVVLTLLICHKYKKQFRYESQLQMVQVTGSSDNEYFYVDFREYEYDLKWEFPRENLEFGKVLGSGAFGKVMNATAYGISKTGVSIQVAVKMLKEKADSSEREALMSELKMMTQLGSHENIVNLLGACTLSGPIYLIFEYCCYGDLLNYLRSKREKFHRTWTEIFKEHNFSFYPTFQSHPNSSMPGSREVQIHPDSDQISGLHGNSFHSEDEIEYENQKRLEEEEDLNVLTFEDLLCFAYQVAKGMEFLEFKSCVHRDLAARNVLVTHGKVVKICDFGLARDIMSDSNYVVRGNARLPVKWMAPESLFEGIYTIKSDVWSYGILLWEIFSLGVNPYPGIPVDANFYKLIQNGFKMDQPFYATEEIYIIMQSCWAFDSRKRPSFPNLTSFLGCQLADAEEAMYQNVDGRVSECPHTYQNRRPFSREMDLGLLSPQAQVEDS
# Assay Explanation: FLT3 enzyme inhibitory ability (ADP-Glo kinase assay)
# Format: biochemical
# Assay Conditions: human FLT3-ITD enzyme 10 ng, ATP 10 μM, 25° C. 1 hour
In this section, each of the compounds is paired with its reported IC50.

Would you please look over these solved cases?
[
  {
    "Compound": "OCCN1CC[C@@H](Oc2cc(Nc3nc(N4N=CCC4c4ccccc4)c4sccc4n3)cc(C3CC3)c2)C1 (stereo partly shown) [Example 14]",
    "Parameter Measured": "IC50",
    "Result": "> 500 nM"
  },
  {
    "Compound": "COc1cc(N2CCN(C)CC2)ccc1Nc1nc(N2N=CCC2c2ccccc2)c2sccc2n1 (stereo not shown) [Example 6]",
    "Parameter Measured": "IC50",
    "Result": "> 500 nM"
  },
  {
    "Compound": "CCN1CCN(c2c(F)cc(Nc3nc(N4N=CCC4c4ccccc4)c4sccc4n3)cc2F)CC1 (stereo not shown) [Example 56]",
    "Parameter Measured": "IC50",
    "Result": "> 500 nM"
  }
]

Now examine the next entry.
Form field: reported IC50 of CN1CCN(c2ccc(Nc3nc(N4N=CCC4c4ccccc4)c4sccc4n3)nc2)CC1 (stereo not shown) [Example 4] > 500 nM
